src = ChEMBL document CHEMBL1201862

System: NCI-H226
Experiment: NCI tumour cell line growth inhibition, 48 h
Active and inactive are the calls of the source. Rule as the data show it: active = GI50 up to about 1.1 µM and inactive = higher.
Outcomes: active, inactive

- O=C(CCC(=O)Nc1cccc(Cl)c1)CC(=O)c1ccc(F)cc1: inactive
- O=C1C=CN(C2OC(CO)C(O)C2O)C(=O)C1 (configuration not stated): inactive
- O=C(/C=C\c1ccccc1-c1ccccc1)c1ccccc1: inactive
- CSc1c(C(=O)Nc2ccccc2)c(N)nn1-c1ccccc1: inactive
- NC(=O)c1cn(Cc2ccccc2)c(=O)n1Cc1ccccc1: inactive
- CCCCCCCC1C(C)c2c([nH]c3ccccc23)C2C(=O)N(c3ccc(OC)cc3)C(=O)C21 (configuration not stated): inactive
- CN1COCc2cc3cc4c(cc3nc21)OCCO4: inactive
- COc1ccc(/C(Cl)=C(\C=O)c2ccccc2)cc1OC: inactive
- Cc1ccccc1C(=O)N/N=C/c1ccc(Sc2nccn2C)c([N+](=O)[O-])c1: inactive
- C/C(=N\NC(=S)N(C)CCN(C)C(=S)N/N=C(\C)c1ccccn1)c1ccccn1: active
- COc1cc([C@@H]2Oc3cc4oc(-c5ccccc5)cc(=O)c4c(O)c3O[C@H]2OC)ccc1O: inactive
- O=C1Cc2ccccc2N1/N=C\c1ccc([N+](=O)[O-])cc1: inactive
- Cc1cc(=O)n(-c2c(C)cccc2Cl)c(/C=C(\O)c2ccncc2)n1: inactive
- O=[N+]([O-])c1ccc(-c2cn(-c3ccc(Cl)cc3)cn2)cc1: inactive
- Cc1nc2cc(/N=N/c3c(O)ccc4ccccc34)ccc2[nH]1: inactive
- CC(C)c1ccc2nc3ccc(C(=O)NCCN4CCN(c5ccccc5)CC4)cn3c(=O)c2c1: inactive
- CC(=O)C1CC2(c3ccccc3)C(=O)c3ccccc3N2O1 (configuration not stated): inactive
- CCOC(=O)c1cc2c3ccn(Cc4ccccc4)c3c3c(C)noc3c2[nH]1: inactive
- CN(/N=C/c1ccccc1C(=O)O)C1=NCCCCN1: inactive
- CCOC(=O)C(=O)Nc1ccccc1C: inactive
- C/C=C/[P+](c1ccccc1)(c1ccccc1)c1ccccc1: inactive
- CC(C)CC(C(N)=O)C(=O)NC(Cc1ccccc1)NC(=O)CNC(=O)C(C)NC(=O)C(N)Cc1ccc(O)cc1 (configuration not stated): inactive

###

System: SNB-19
Experiment: NCI tumour cell line growth inhibition, 48 h
Active and inactive are the calls of the source. Cut-off read from the data, not from the text of the source: active = GI50 up to about 1.1 µM and inactive = higher. Starred links: 1 amine or outer side, 2 acyl side, 3 side chain; linkers in the order of their positions; H or OH if unused. Positions of bridges follow the written chain, without caps; N, C: chain ends. Non-standard residues stand in square brackets, D forms with d. Residues, ends and D or L forms follow the SMILES beside them. Chains are numbered I, II in the order given. Actinocin(9to1) = Cc1c2oc3c(C)ccc(C(=O)[*:1])c3nc-2c(C(=O)[*:2])c(N)c1=O; NMeV = CN[CH](C(=O)O)C(C)C; Sar = CNCC(=O)O
Outcome codes: active, inactive

- Cc1c2oc3c(C)ccc(C(=O)NC4C(=O)NC(Cc5ccc(O)cc5)C(=O)N5CCCC5C(=O)N(C)CC(=O)N(C)C(C(C)C)C(=O)OC4C)c3nc-2c(C(=O)NC2C(=O)NC(Cc3ccc(O)cc3)C(=O)N3CCCC3C(=O)N(C)CC(=O)N(C)C(C(C)C)C(=O)OC2C)c(N)c1=O (stereo not given) (I: TYP[Sar][NMeV] / II: TYP[Sar][NMeV]; ester I:1-I:C, II:1-II:C; linker I:N-II:N via Actinocin(9to1); configuration not given here): active
- COc1cc(Nc2n[nH]c(NS(=O)(=O)c3cc(C)c(Cl)cc3S)n2)cc(OC)c1OC: inactive
- O=C1c2cccnc2-c2nccc3c2c1nc1ccccc13: active
- CC(C)c1ccc(Cc2ccc(C(C)C)c(NC(=O)C(=O)Cc3cnc4ccccc4n3)c2C(C)C)c(C(C)C)c1NC(=O)C(=O)Cc1cnc2ccccc2n1: inactive
- CC(C)(O)[C@H](CCO)O[Si](c1ccccc1)(c1ccccc1)C(C)(C)C: inactive
